biological target: Fuc(a1-2)[GalNAc(a1-3)]Gal(b1-4)GlcNAc; assay: glycan array binding signal (z-score within array); higher = stronger binding; conditions: glycan notation: IUPAC condensed, linker removed
About 410 targets per protein were measured; listed, in parts, are those with the strongest signals and a random draw of the rest.
MEASURED ENDPOINT: glycan array binding signal (z-score)
Give only the figure.

Inquiry: Query: glycan array binding signal (z-score); subject: Ficolin A (Rattus norvegicus), Q9WTS8 (protein) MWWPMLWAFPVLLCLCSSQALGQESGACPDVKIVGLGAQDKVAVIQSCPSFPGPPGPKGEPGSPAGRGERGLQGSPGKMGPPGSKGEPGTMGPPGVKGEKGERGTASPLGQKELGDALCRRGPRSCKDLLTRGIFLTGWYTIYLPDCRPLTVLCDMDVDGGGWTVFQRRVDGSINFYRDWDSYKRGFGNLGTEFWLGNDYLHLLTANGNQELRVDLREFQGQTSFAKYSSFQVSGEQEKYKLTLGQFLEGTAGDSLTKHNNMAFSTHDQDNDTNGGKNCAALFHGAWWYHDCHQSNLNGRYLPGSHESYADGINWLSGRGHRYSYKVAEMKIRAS
Reply text: -0.02
